Measured values drawn from patent US20260226068A1 for this set.

Reported pIC50 values for a set of compounds
Molecular target: IL-17A/F (Homo sapiens, UniProt Q16552+Q96PD4)
Sequence (Q16552 24-155): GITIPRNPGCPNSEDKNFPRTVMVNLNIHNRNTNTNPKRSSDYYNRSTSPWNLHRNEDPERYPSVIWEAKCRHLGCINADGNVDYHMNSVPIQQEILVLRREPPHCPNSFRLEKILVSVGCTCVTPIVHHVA
Sequence (Q96PD4 31-163): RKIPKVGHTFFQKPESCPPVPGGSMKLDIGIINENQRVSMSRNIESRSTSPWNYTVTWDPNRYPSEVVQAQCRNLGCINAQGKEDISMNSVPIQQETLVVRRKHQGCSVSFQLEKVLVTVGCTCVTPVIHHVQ
Test: IL-17A/F HEK-Blue cell assay (SEAP reporter)
Conditions: HEK-Blue IL-17A reporter cells, IL17A/F 5 ng/mL, 20 hours, SEAP read at A630; read-out: HEK-Blue IL17AF (IC50 for IL-17A/F inhibition)
pIC50: −log10 of the molar value.

pIC50 recorded for this compound, O=C(N[C@H](c1cn2nc(C[C@H]3C[C@@H](C(F)(F)F)CNC3=O)cnc2n1)C1CCC(F)(F)CC1)c1nonc1[C@H]1CC1(F)F (single isomer, unassigned) [Compound 76] , is < 6.00

According to the records, this compound CCn1nccc1C(=O)N[C@H](c1cn2nc(C[C@H]3CC(F)(F)CNC3=O)c(C3CCOCC3)nc2n1)C(C1CC1)C1CC1 [Compound 323] displays pIC50 of < 6.00

Notebook: CCn1nccc1C(=O)N[C@H](c1cn2nc(C[C@H]3C[C@@H](C(F)(F)F)CNC3=O)c([C@@H]3CCOC3)nc2n1)C(C1CC1)C1CC1 (single isomer, unassigned) [Compound 322] , pIC50 read as 6.00 to 7.00

The compound listed as CCn1nccc1C(=O)N[C@H](c1cn2nc(C[C@H]3C[C@@H](C(F)(F)F)CNC3=O)c(C3CCOCC3)nc2n1)[C@H]1CCCC(F)(F)C1 [Compound 66] has a reported pIC50 of > 7.00

// field: pIC50; key: CCn1nccc1C(=O)N[C@H](c1cn2nc(C[C@@H]3C[C@@H](C)CNC3=O)c(C(C)C)nc2n1)C1CCC(F)(F)CC1 [Compound 390] ; value = 6.00 to 7.00

Lab note: CCn1nccc1C(=O)N[C@H](c1cn2nc(C[C@H]3C[C@@H](C(F)(F)F)CNC3=O)c([C@H]3CCOC3)nc2n1)C(C1CC1)C1CC1 (single isomer, unassigned) [Compound 321] gave pIC50 of 6.00 to 7.00

The reported value for CCn1nccc1C(=O)N[C@H](c1cn2nc(C[C@H]3C[C@@H](C(F)(F)F)CNC3=O)c(CN3CCOCC3)nc2n1)C(C1CC1)C1CC1 [Compound 406] in terms of pIC50 is 6.00 to 7.00

The reported pIC50 of the compound CCn1nccc1C(=O)N[C@H](c1cn2nc(CC3C[C@@H](C(F)(F)F)CNC3=O)cnc2n1)[C@H]1CC[C@H](C)CC1 (single isomer, unassigned) [Compound 2] was < 6.00

Per the record, CCn1ncnc1C(=O)N[C@H](c1cn2nc(C[C@H]3C[C@@H](C(F)(F)F)CNC3=O)c(C3CCOCC3)nc2n1)C(C1CC1)C1CC1 [Compound 385] has pIC50 of < 6.00

pIC50 in this record for CC(C)c1nonc1C(=O)N[C@H](c1cn2nc(CC3C[C@@H](C(F)(F)F)CNC3=O)cnc2n1)C1CCC(F)(F)CC1 (some centres unmarked) [Compound 12] : < 6.00

Please fill in: pIC50 reported for CCn1nccc1C(=O)N[C@H](c1cn2nc(C[C@H]3C[C@@H](C(F)(F)F)CNC3=O)c(N3CCN(C)CC3)nc2n1)C1CCC(F)(F)CC1 [Compound 296] = 6.00 to 7.00
